# Test system: Helicobacter pylori
# protocol summary: Antibacterial activity against Helicobacter pylori assessed as bacterial colonies formation incubated for 24 hrs measured after up to 5 days culturing time by CFU counting analysis
# Assay type: functional
readout type: MBC (µg/mL)
One number for each entry, in µg/mL.

The following compounds have reported results that may help.
Query string: Give the value of MBC reported for the following: COc1cc(OC)c2c(c1)N(CCCC[C@H]1CCC[C@]3(CC[C@H](C)O3)O1)C(=O)C2
Result string: 12.5

Query string: Assign MBC to the following record: COc1cc(OC)c2c(c1)[C@@H](CCCCCCCC[C@H]1CCC[C@]3(CC[C@H](C)O3)O1)OC2=O
Result string: 3

New cases:
Query string: Report MBC, nothing else, for this compound: COc1cc(OC)c2c(c1)[C@@H](CCCCC[C@H]1CCC[C@]3(CC[C@@H](C)O3)O1)OC2=O
Result string: 1

* * *

For each entry below, report its MBC value.
# Tested on: Helicobacter pylori
# protocol summary: Antibacterial activity against Helicobacter pylori assessed as bacterial colonies formation incubated for 24 hrs measured after up to 5 days culturing time by CFU counting analysis
# Assay type: functional

Query string: Look up and report measured MBC for this entry: COc1cc(OC)c2c(c1)N(CCCCC[C@H]1CCC[C@]3(CC[C@H](C)O3)O1)C(=O)C2
Result string: 12.5 µg/mL

Query string: Give recorded MBC. COc1cc(OC)c2ccn(CCCCC[C@H]3CCC[C@]4(CC[C@H](C)O4)O3)c2c1
Result string: 8.3 µg/mL

Query string: Name the recorded MBC of the item COc1cc(OC)c2c(c1)[C@@H](CCCC[C@H]1CCC[C@]3(CC[C@H](C)O3)O1)OC2=O in your answer.
Result string: 12.5 µg/mL

Query string: Item COc1cc(OC)c2ccn(CCCC[C@H]3CCC[C@]4(CC[C@H](C)O4)O3)c2c1 : provide MBC
Result string: 3 µg/mL

Further cases:
Query string: Provide MBC value for the following compound: COc1cc(OC)c2c(c1)N(CCCCCCCC[C@H]1CCC[C@]3(CC[C@H](C)O3)O1)C(=O)C2
Result string: 16 µg/mL
